System: HT-29
Assay: NCI tumour cell line growth inhibition, 48 h
The source made the active and inactive calls. No stated cut-off is given here; in the data, active = GI50 up to about 1.1 µM and inactive = higher.
Reported values of GI50 for individual entries

Consider the worked cases shown below.
1. Cc1cn(C2CC3C(COCN3O)O2)c(=O)[nH]c1=O (stereo not drawn) : > 100 µM (inactive)
2. COc1ccccc1/C=C/C1=NN(c2cccc(S(=O)(=O)O)c2)C2(C1)SCC(=O)N2c1nc2ccccc2s1 (stereo not drawn) : 97.9 µM (inactive)

// next item, GI50 requested
Which GI50 is listed for CSc1nc2c(nc(N)n2C2OC(CO)C(O)C(O)C2O)c(=O)n1C (stereo not drawn) ?
> 100 µM (inactive)

====

Tested on: UACC-62
Assay: NCI tumour cell line growth inhibition, 48 h
Calls of active or inactive are those of the source. No stated cut-off is given here; in the data, active = GI50 up to about 1.1 µM and inactive = higher.
The reply should be one of these categories: active, inactive

Worked set:
1) CC1(C)OC(=C(C#N)C#N)C(C#N)=C1/C=C/c1ccncc1 : inactive
2) N#C[BH2-][n+]1cn(C2CC(O)C(COP(=O)(O)OC3CC(n4ccc(N)nc4=O)OC3CO)O2)c2nc(N)[nH]c(=O)c21 (configuration not stated) : inactive
3) CCCCCCCCCCCC[C@@H](O)[C@H]1CCC([C@H](O)CCCCC(=O)CCCCCCCC2=C[C@H](C)OC2=O)O1 (some centres not stated) : inactive
4) CCC1(Cl)C(=O)NC(=O)N(C2CC(O)C(CO)O2)C1N=[N+]=[N-] (configuration not stated) : inactive
5) Cc1cccc(C2SCc3nc4ccccc4n32)c1 (configuration not stated) : inactive

Query: recorded result category for COCN1C(=O)[C@@H]2C[C@@H](O)CN2C(=O)c2ccccc21 in this test
inactive

Again, but for Cc1[nH]c(=O)[nH]c(=O)c1C(=O)N(CCO)Cc1ccccc1
inactive

Would you mind doing Cn1nc2ccc([N+](=O)[O-])c(Cn3nnc4ccccc43)c2n1 as well?
inactive

Follow-up entry: Cc1ccc(S(=O)(=O)n2ccn3c(=O)cc(C)nc23)cc1
inactive

Same lookup for O=C1/C(=C/c2ccncc2)C(n2cccc2)c2c(Br)sc(Br)c21 (configuration not stated) , please.
inactive

Also need CC1=CC(=O)/C(=C/NC(=S)c2ccccc2)C(=O)O1 , thanks.
inactive

CC(=O)OCC1OC(N2C(=O)/C(=N\NC(N)=S)c3ccc([N+](=O)[O-])cc32)C(OC(C)=O)C1OC(C)=O (configuration not stated) , same question.
inactive

Now give it for O=C(O)c1ccc(NC(c2ccccc2)c2ccc3cccnc3c2O)cc1 (configuration not stated) too.
inactive

Also need Cc1ccc(Cc2cc(N3CCN(c4cccc(Cl)c4)CC3)nnc2C)cc1 , thanks.
inactive

Item: CSc1nc2c(nc(N)n2C2OC(CO)C(O)C(O)C2O)c(=O)n1C (configuration not stated)
inactive

Please do the same for CC(=O)CCCCn1c(=O)c2c(nc(Br)n2C)n(C)c1=O as well.
inactive

Another: CCOc1ccc(/N=N/c2c(-c3ccccc3)nn(C(=O)CC(=O)Nc3cccc(C)c3)c2-c2ccccc2)cc1
inactive

Now the compound C=C1CC[C@@H](C)[C@](C)(CCc2ccoc2)C/C=C\C=C/1C(=O)O
inactive

====

System: UO-31
Experiment: NCI tumour cell line growth inhibition, 48 h
Calls of active or inactive are those of the source. No stated cut-off is given here; in the data, active = GI50 up to about 1.1 µM and inactive = higher.
# valid calls are label 1 (active), label 0 (inactive); nothing else

1) CCCCCCCCCCCCCC(=O)OCC1OC(=O)C(O)C1O (configuration not stated) : label 0
2) Cc1ccc(C2(c3ccc(C)cc3)SC(=C(C#N)C#N)c3ccccc32)cc1 : label 0
3) CCc1c(O)c(O)c(C(C)=O)c2c(O)c(-c3c(C)cc4c(CC)c(O)c(O)c(C(C)=O)c4c3O)c(C)cc12 : label 0
4) Nc1nc(Sc2ccc([N+](=O)[O-])c3nonc23)c2nc[nH]c2n1 : label 1
5) O=c1[nH]nc(Cc2ccccc2)n1/N=C/c1c(O)ccc2ccccc12 : label 0

Given COc1ccc2cc(CNCCCCCCCCNCc3ccc4cc(OC)ccc4c3)ccc2c1 , state the outcome it received in this test.
label 0
